- Test system: DeltatarO mutant
- ASSAY_METHOD_TEXT: S. aureus survival, RN4220 and DeltatarO strains – OD600, teichoic acid synthesis inhibitors, primary screen (AID 463173)
- TEST_CONTEXT: S. aureus RN4220 wild type/DeltatarO growth, OD600, 18 h, active compounds read low, screened at 18.75 µg/mL (by protocol)
The whole screen tested about 52,000 compounds, of which about 4,300 (8.3%) were called active. The entries come from a sample that favours actives as a whole.
Decision: survival beneath 70% gives condition met; survival meeting or exceeding 70% gives condition not met.

- COMPOUND: "CC(=O)c1ccc(Oc2nc(C)nc3c2oc2ccccc23)cc1"
  CLASS_NAME: "condition not met"
- COMPOUND: "N#CC1=C(N)SC(N)=C(C#N)C1CCC1CCCCC1"
  CLASS_NAME: "condition met"
- COMPOUND: "CCOC(=O)CCn1nc(C)c2c(C)n(-c3ccccc3)nc2c1=O"
  CLASS_NAME: "condition not met"
- COMPOUND: "COc1cccc2c1Oc1ncccc1N(C(=O)Nc1ccc(F)c(Cl)c1)C2"
  CLASS_NAME: "condition not met"
- COMPOUND: "CC(CC1C(C#N)=C(N)SC(N)=C1C#N)c1ccccc1 (configuration not stated)"
  CLASS_NAME: "condition met"
- COMPOUND: "CCOc1ccc(NC(=O)c2cc3nc(-c4ccc(OC)cc4)cc(C(F)(F)F)n3n2)cc1"
  CLASS_NAME: "condition not met"
- COMPOUND: "CN(C)c1ccc(CN(Cc2ccco2)C(=O)COc2ccc(F)cc2)cc1"
  CLASS_NAME: "condition not met"
- COMPOUND: "CCCN(CCC)C(=O)Cn1c(=O)n(-c2cccc(C)c2)c(=O)c2c1c1cc(OC)ccc1n2C"
  CLASS_NAME: "condition met"
- COMPOUND: "Clc1ccc(-c2csc(=Nc3ccccc3)n2Cc2ccc3c(c2)OCO3)cc1"
  CLASS_NAME: "condition not met"
- COMPOUND: "CCN(CC)CCn1c(-c2ccccc2)csc1=Nc1ccccc1"
  CLASS_NAME: "condition met"
- COMPOUND: "COc1ccc(CCNC(=O)c2c(C)nn(-c3ccc(F)cc3)c2-n2cccc2)cc1OC"
  CLASS_NAME: "condition not met"
- COMPOUND: "CCc1ccc(NC(=O)C(=O)NCC(c2cccnc2)N2CCc3ccccc3C2)cc1 (configuration not stated)"
  CLASS_NAME: "condition met"
- COMPOUND: "COc1cccc(Oc2nc(C)nc3c2oc2ccccc23)c1"
  CLASS_NAME: "condition met"
- COMPOUND: "Cc1ccc(-c2csc(=Nc3ccccc3)n2CCCO)cc1"
  CLASS_NAME: "condition met"
- COMPOUND: "O=S(=O)(c1ccc(-c2csc(=Nc3ccc(F)cc3)n2CCCCCCO)cc1)N1CCCC1"
  CLASS_NAME: "condition met"
- COMPOUND: "COc1ccc(-c2cc(C(F)(F)F)n3nc(C(=O)NCC45CC6CC(CC(C6)C4)C5)cc3n2)cc1"
  CLASS_NAME: "condition met"
- COMPOUND: "COc1ccc(-c2csc(=Nc3ccccc3)n2CCO)cc1F"
  CLASS_NAME: "condition met"
- COMPOUND: "Cc1ccc(-c2csc(=Nc3ccccc3)n2Cc2ccc3c(c2)OCO3)cc1"
  CLASS_NAME: "condition not met"
- COMPOUND: "Cc1ccc(CNC(=O)CN2CCCN(Cc3ccc(F)cc3)S2(=O)=O)cc1"
  CLASS_NAME: "condition met"
- COMPOUND: "O=C(Nc1cccc(C(F)(F)F)c1)c1cc2nc(-c3ccccc3)cc(C(F)(F)F)n2n1"
  CLASS_NAME: "condition met"
- COMPOUND: "Cc1nc(Oc2ccccc2C)c2oc3ccccc3c2n1"
  CLASS_NAME: "condition not met"
- COMPOUND: "O=C(c1cc2nc(-c3ccccc3)cc(C(F)(F)F)n2n1)N1CCCC1"
  CLASS_NAME: "condition not met"

###

- Test system: DeltatarO mutant
- ASSAY_METHOD_TEXT: S. aureus survival, RN4220 and DeltatarO strains – OD600, teichoic acid synthesis inhibitors, primary screen (AID 463173)
- TEST_CONTEXT: S. aureus RN4220 wild type/DeltatarO growth, OD600, 18 h, active compounds read low, screened at 18.75 µg/mL (by protocol)
The campaign covered roughly 52,000 compounds. About 4,300 (8.3%) were called active. For the sample, actives were picked, then their nearest neighbours and some compounds at random.
Rule: survival below 90% gives YES, anything at or above gives NO.

- COMPOUND: "CCN1c2ccccc2-c2nc(SCC(=O)Nc3c(C)cc(C)cc3C)ncc2S1(=O)=O"
  ASSAYED_SYSTEM: "DeltatarO mutant"
  CLASS_NAME: "NO"
- COMPOUND: "CCN(CC)c1ccc2cc(-c3nc(-c4ccccc4F)no3)c(=O)oc2c1"
  ASSAYED_SYSTEM: "DeltatarO mutant"
  CLASS_NAME: "NO"
- COMPOUND: "CCOC(=O)C1CCCN(S(=O)(=O)c2ccc(OC)cc2)C1 (stereo unspecified)"
  ASSAYED_SYSTEM: "DeltatarO mutant"
  CLASS_NAME: "YES"
- COMPOUND: "CCN1c2ccccc2-c2nc(SCC(=O)Nc3cc(F)ccc3F)ncc2S1(=O)=O"
  ASSAYED_SYSTEM: "DeltatarO mutant"
  CLASS_NAME: "NO"
- COMPOUND: "CCCCn1cc(S(=O)(=O)c2ccc(CC)cc2)c(=O)c2cc(F)c(N3CCCC(C)C3)cc21 (stereo unspecified)"
  ASSAYED_SYSTEM: "DeltatarO mutant"
  CLASS_NAME: "NO"
- COMPOUND: "CC1CCN(C(=O)Cn2cc(SCc3ccccc3)c3ccccc32)CC1"
  ASSAYED_SYSTEM: "DeltatarO mutant"
  CLASS_NAME: "YES"
- COMPOUND: "Cc1ccc(C(=O)N2C(C)CCCC2C)c(Cl)c1 (stereo unspecified)"
  ASSAYED_SYSTEM: "DeltatarO mutant"
  CLASS_NAME: "YES"
- COMPOUND: "O=C(OCc1cc(=O)n2nc(-c3cccs3)sc2n1)c1cccc(F)c1"
  ASSAYED_SYSTEM: "DeltatarO mutant"
  CLASS_NAME: "YES"
- COMPOUND: "CCOC(=O)CN1CCOCCN(CC(=O)OCC)CCOCC1"
  ASSAYED_SYSTEM: "DeltatarO mutant"
  CLASS_NAME: "YES"
- COMPOUND: "CC(C)(C)OC(=O)N1CCC(c2c(C(=O)NCCN3CCOCC3)cnn2-c2ccc(F)cc2)CC1"
  ASSAYED_SYSTEM: "DeltatarO mutant"
  CLASS_NAME: "YES"
- COMPOUND: "Cc1ccc(CCNC(=O)c2ccc(CS(=O)(=O)Cc3ccc(Cl)cc3)o2)cc1"
  ASSAYED_SYSTEM: "DeltatarO mutant"
  CLASS_NAME: "YES"
- COMPOUND: "CC(=O)Nc1c(C(=O)O)oc2ccc(Cl)cc12"
  ASSAYED_SYSTEM: "DeltatarO mutant"
  CLASS_NAME: "YES"
- COMPOUND: "CCN1c2ccccc2-c2nc(SCC(=O)Nc3cc(OC)cc(OC)c3)ncc2S1(=O)=O"
  ASSAYED_SYSTEM: "DeltatarO mutant"
  CLASS_NAME: "YES"
- COMPOUND: "CC(C)(C)OC(=O)N1CCC(c2c(C(=O)NCc3ccccn3)cnn2-c2ccccc2Cl)CC1"
  ASSAYED_SYSTEM: "DeltatarO mutant"
  CLASS_NAME: "YES"
- COMPOUND: "COc1ccc(/C=C(\\C#N)c2nc(-c3cc4ccccc4oc3=O)cs2)cc1OC"
  ASSAYED_SYSTEM: "DeltatarO mutant"
  CLASS_NAME: "YES"
- COMPOUND: "Cc1ccc(-n2ncc(C(=O)NCc3ccco3)c2C2CCN(C(=O)OC(C)(C)C)CC2)cc1"
  ASSAYED_SYSTEM: "DeltatarO mutant"
  CLASS_NAME: "NO"
- COMPOUND: "Cc1cccc(-n2ncc(C(=O)NCc3ccco3)c2C2CCN(C(=O)OC(C)(C)C)CC2)c1"
  ASSAYED_SYSTEM: "DeltatarO mutant"
  CLASS_NAME: "YES"
- COMPOUND: "COc1cc2nc(C3CCC3)n(NC(=O)c3ccco3)c(=O)c2cc1OC"
  ASSAYED_SYSTEM: "DeltatarO mutant"
  CLASS_NAME: "YES"
- COMPOUND: "Cn1c(SCc2ccccc2Cl)nc(=O)c2c1NC(=O)CC2c1cc(F)ccc1F (stereo unspecified)"
  ASSAYED_SYSTEM: "DeltatarO mutant"
  CLASS_NAME: "YES"
- COMPOUND: "COc1ccc(S(=O)(=O)NCCSc2nnnn2-c2ccccc2)cc1OC"
  ASSAYED_SYSTEM: "DeltatarO mutant"
  CLASS_NAME: "NO"
- COMPOUND: "Cc1ccc(C)c(NS(=O)(=O)c2cc3c4c(c2)C(C)C(=O)N4CCC3)c1 (stereo unspecified)"
  ASSAYED_SYSTEM: "DeltatarO mutant"
  CLASS_NAME: "NO"
- COMPOUND: "COC(=O)c1oc2ccc(Cl)cc2c1C"
  ASSAYED_SYSTEM: "DeltatarO mutant"
  CLASS_NAME: "YES"
- COMPOUND: "COc1ccc(C2CC(=O)c3cc(-c4nc(-c5cccc([N+](=O)[O-])c5)cs4)c(=O)n(-c4ccc(OC)cc4)c3C2)cc1 (stereo unspecified)"
  ASSAYED_SYSTEM: "DeltatarO mutant"
  CLASS_NAME: "YES"
- COMPOUND: "Cc1ccc(C)c(N2CCN(CCCNC(=O)c3cnn(-c4ccccc4)c3C3CCN(C(=O)OC(C)(C)C)CC3)CC2)c1"
  ASSAYED_SYSTEM: "DeltatarO mutant"
  CLASS_NAME: "NO"
- COMPOUND: "COc1ccc(OC)c(/C=N/c2ncn[nH]2)c1"
  ASSAYED_SYSTEM: "DeltatarO mutant"
  CLASS_NAME: "NO"
- COMPOUND: "Cc1ccc(-c2nnc(SCc3cccc(C#N)c3)o2)cc1"
  ASSAYED_SYSTEM: "DeltatarO mutant"
  CLASS_NAME: "YES"
- COMPOUND: "CCCCOCc1cc(CN2CCN(c3cccc(Cl)c3)CC2)c(O)c2ncccc12"
  ASSAYED_SYSTEM: "DeltatarO mutant"
  CLASS_NAME: "YES"
- COMPOUND: "N#Cc1cn(-c2ccccc2)nc1-c1cccnc1"
  ASSAYED_SYSTEM: "DeltatarO mutant"
  CLASS_NAME: "YES"
- COMPOUND: "CC(C)(C)OC(=O)N1CCC(c2c(C(=O)NCCN3CCc4ccccc4C3)cnn2-c2ccc(F)cc2F)CC1"
  ASSAYED_SYSTEM: "DeltatarO mutant"
  CLASS_NAME: "YES"
- COMPOUND: "Cc1ccc(NC(=O)c2sc3nc(-c4ccncc4)ccc3c2N)cc1"
  ASSAYED_SYSTEM: "DeltatarO mutant"
  CLASS_NAME: "NO"
- COMPOUND: "CC(C)(C)OC(=O)N1CCC(c2c(C(=O)NCc3ccccn3)cnn2-c2ccccc2)CC1"
  ASSAYED_SYSTEM: "DeltatarO mutant"
  CLASS_NAME: "NO"
- COMPOUND: "O=c1c2oc3ccccc3c2n(Cc2ccccc2Cl)c(=O)n1Cc1ccc2c(c1)OCO2"
  ASSAYED_SYSTEM: "DeltatarO mutant"
  CLASS_NAME: "YES"
- COMPOUND: "O=c1oc2ccccc2cc1-c1nc(-c2cccc(Cl)c2)cs1"
  ASSAYED_SYSTEM: "DeltatarO mutant"
  CLASS_NAME: "NO"
- COMPOUND: "CC(C)CCNC(=O)c1ccc(Cn2c(SCC(N)=O)nc3ccccc3c2=O)cc1"
  ASSAYED_SYSTEM: "DeltatarO mutant"
  CLASS_NAME: "YES"
- COMPOUND: "Cc1cccc2nc(-c3ccc(N(C)C)cc3)c(Nc3ccc4c(c3)OCO4)n12"
  ASSAYED_SYSTEM: "DeltatarO mutant"
  CLASS_NAME: "NO"
- COMPOUND: "CCN(C(=O)c1ccc(C(=O)N(CC)c2ccccc2C)cc1)c1ccccc1C"
  ASSAYED_SYSTEM: "DeltatarO mutant"
  CLASS_NAME: "YES"
- COMPOUND: "Cc1ccc(-n2ncc(C(=O)NCc3ccccn3)c2C2CCN(C(=O)OC(C)(C)C)CC2)c(C)c1"
  ASSAYED_SYSTEM: "DeltatarO mutant"
  CLASS_NAME: "YES"
